tgt: RAC-alpha serine/threonine-protein kinase (Homo sapiens)
assay: Inhibition of AKT phosphorylation in serum starved bFGF stimulated HFF cells at 20 uM preincubated for 10 mins followed by bFGF addition and measured after 20 mins by Western blotting analysis
Assay type: cell-based
details: time 30.0 min
Active and inactive are the calls of the source. The rule behind the calls is not given here.
Outcome codes: active, inactive

INSERT INTO assay_data (compound, tgt, discretelabel) VALUES
  ('CCCCC(Cn1nc(Nc2ccccc2C)c(C(=O)OCC)c1N)OC(=O)Nc1cccc(C(F)(F)F)c1 (stereo not drawn)', 'RAC-alpha serine/threonine-protein kinase (Homo sapiens)', 'inactive'),
  ('CCCCC(O)Cn1nc(Nc2cccc(Cl)c2)c(C(=O)OCC)c1N (stereo not drawn)', 'RAC-alpha serine/threonine-protein kinase (Homo sapiens)', 'inactive'),
  ('CCCCC(Cn1nc(Nc2ccc(Cl)cc2)c(C(=O)OCC)c1N)OC(=O)Nc1cccc(C(F)(F)F)c1 (stereo not drawn)', 'RAC-alpha serine/threonine-protein kinase (Homo sapiens)', 'inactive'),
  ('CCCCC(O)Cn1nc(Nc2ccccc2)c(C(=O)OCC)c1N (stereo not drawn)', 'RAC-alpha serine/threonine-protein kinase (Homo sapiens)', 'active'),
  ('CCCCC(O)Cn1nc(Nc2ccccc2Cl)c(C(=O)OCC)c1N (stereo not drawn)', 'RAC-alpha serine/threonine-protein kinase (Homo sapiens)', 'active'),
  ('CCOC(=O)c1c(Nc2ccc(C)cc2)nn(CC(OC(=O)Nc2cccc(C(F)(F)F)c2)c2ccccc2)c1N (stereo not drawn)', 'RAC-alpha serine/threonine-protein kinase (Homo sapiens)', 'inactive'),
  ('CCCCC(Cn1nc(Nc2ccc(C)cc2)c(C(=O)OCC)c1N)OC(=O)Nc1cccc(C(F)(F)F)c1 (stereo not drawn)', 'RAC-alpha serine/threonine-protein kinase (Homo sapiens)', 'inactive'),
  ('CCCCC(O)Cn1nc(Nc2ccc(Cl)cc2)c(C(=O)OCC)c1N (stereo not drawn)', 'RAC-alpha serine/threonine-protein kinase (Homo sapiens)', 'inactive'),
  ('CCCCC(O)Cn1nc(Nc2ccccc2C)c(C(=O)OCC)c1N (stereo not drawn)', 'RAC-alpha serine/threonine-protein kinase (Homo sapiens)', 'active'),
  ('CCCCC(O)Cn1nc(Nc2ccc(C)cc2)c(C(=O)OCC)c1N (stereo not drawn)', 'RAC-alpha serine/threonine-protein kinase (Homo sapiens)', 'active'),
  ('CCCCC(Cn1nc(Nc2ccccc2Cl)c(C(=O)OCC)c1N)OC(=O)Nc1cccc(C(F)(F)F)c1 (stereo not drawn)', 'RAC-alpha serine/threonine-protein kinase (Homo sapiens)', 'inactive'),
  ('CCCCC(Cn1nc(Nc2ccccc2)c(C(=O)OCC)c1N)OC(=O)Nc1cccc(C(F)(F)F)c1 (stereo not drawn)', 'RAC-alpha serine/threonine-protein kinase (Homo sapiens)', 'inactive'),
  ('CCCCC(O)Cn1nc(Nc2cccc(C)c2)c(C(=O)OCC)c1N (stereo not drawn)', 'RAC-alpha serine/threonine-protein kinase (Homo sapiens)', 'active');

###

tgt: RAC-alpha serine/threonine-protein kinase (Homo sapiens) (UniProt P31749)
Sequence (P31749 whole entry): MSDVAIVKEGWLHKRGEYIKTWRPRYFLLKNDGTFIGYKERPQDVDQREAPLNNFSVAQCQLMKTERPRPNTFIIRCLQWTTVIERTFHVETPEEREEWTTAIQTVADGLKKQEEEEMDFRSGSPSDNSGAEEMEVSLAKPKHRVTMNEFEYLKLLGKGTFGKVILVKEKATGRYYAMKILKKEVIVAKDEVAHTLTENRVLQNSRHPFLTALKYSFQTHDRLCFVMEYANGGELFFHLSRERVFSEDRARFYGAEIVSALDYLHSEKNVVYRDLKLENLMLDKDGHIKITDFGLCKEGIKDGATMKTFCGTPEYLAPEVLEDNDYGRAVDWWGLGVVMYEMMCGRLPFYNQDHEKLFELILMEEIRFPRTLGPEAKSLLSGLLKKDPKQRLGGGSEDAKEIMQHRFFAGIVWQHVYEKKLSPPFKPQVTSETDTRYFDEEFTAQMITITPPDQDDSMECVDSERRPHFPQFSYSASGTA
assay: Inhibition of AKT phosphorylation in serum starved bFGF stimulated HFF cells assessed as residual activity at 20 uM preincubated for 10 mins followed by bFGF addition and measured after 20 mins by Western blotting analysis relative to control
Type: cell-based
details: time 30.0 min
outcomeMeasure: Activity (%)

INSERT INTO results (compound, experimentalresult) VALUES
  ('CCOC(=O)c1c(Nc2ccc(Cl)cc2)nn(CC(O)c2ccccc2)c1N (centres undefined)', 27.3),
  ('CCOC(=O)c1c(Nc2ccccc2)nn(CC(O)c2ccccc2)c1N (centres undefined)', 27.3),
  ('CCOC(=O)c1c(Nc2ccc(C)cc2)nn(CC(O)c2ccccc2)c1N (centres undefined)', 27.3),
  ('CCCC(O)Cn1ncc(C(=O)OCC)c1NC(=O)Nc1cccc(C(F)(F)F)c1 (centres undefined)', 55.9);

###

Tested on: HFF
assay: Antiangiogenic activity in confluent HFF cells assessed as relative migration rate at 20 uM incubated for 48 hrs by Hoechst 33342 staining based wound healing assay relative to control
Assay type: functional, Homo sapiens
outcomeMeasure: Activity (%)

INSERT INTO measurements (molecule, readoutunit, comparativesign, experimentalresult) VALUES
  ('CCOC(=O)c1c(Nc2ccc(Cl)cc2)nn(CC(O)c2ccccc2)c1N (stereo not given)', '%', '<', 55),
  ('CCOC(=O)c1c(Nc2ccc(C)cc2)nn(CC(O)c2ccccc2)c1N (stereo not given)', '%', '<', 55),
  ('CCCCC(O)Cn1nc(Nc2ccc(C)cc2)c(C(=O)OCC)c1N (stereo not given)', '%', '=', 14.34),
  ('CCOC(=O)c1c(Nc2ccccc2)nn(CC(O)c2ccccc2)c1N (stereo not given)', '%', '<', 55),
  ('CCCC(O)Cn1ncc(C(=O)OCC)c1NC(=O)Nc1cccc(C(F)(F)F)c1 (stereo not given)', '%', '=', 31.37);

###

Tested on: HFF
assay: Antiangiogenic activity in confluent HFF cells assessed as inhibition of cell migration at 20 uM incubated for 24 to 48 hrs by Hoechst 33342 staining based wound healing assay
Type: functional
details: Homo sapiens, time 24-48 hrs
Active and inactive are the calls of the source. No cut-off for these calls is given here.
Outcome codes: class 1 (active), class 0 (inactive)

INSERT INTO assay_data (compound, discretelabel) VALUES
  ('CCCCC(O)Cn1nc(Nc2cccc(Cl)c2)c(C(=O)OCC)c1N (stereo not drawn)', 'class 1'),
  ('CCCCC(O)Cn1nc(Nc2ccccc2Cl)c(C(=O)OCC)c1N (stereo not drawn)', 'class 1'),
  ('CCCCC(O)Cn1nc(Nc2ccc(Cl)cc2)c(C(=O)OCC)c1N (stereo not drawn)', 'class 1'),
  ('CCOC(=O)c1c(Nc2ccc(Cl)cc2)nn(CC(OC(=O)Nc2cccc(C(F)(F)F)c2)c2ccccc2)c1N (stereo not drawn)', 'class 0'),
  ('CCCCC(Cn1nc(Nc2ccccc2C)c(C(=O)OCC)c1N)OC(=O)Nc1cccc(C(F)(F)F)c1 (stereo not drawn)', 'class 0'),
  ('CCCCC(Cn1nc(Nc2ccccc2)c(C(=O)OCC)c1N)OC(=O)Nc1cccc(C(F)(F)F)c1 (stereo not drawn)', 'class 0'),
  ('CCCCC(O)Cn1nc(Nc2ccccc2)c(C(=O)OCC)c1N (stereo not drawn)', 'class 1'),
  ('CCCCC(Cn1nc(Nc2ccc(C)cc2)c(C(=O)OCC)c1N)OC(=O)Nc1cccc(C(F)(F)F)c1 (stereo not drawn)', 'class 0'),
  ('CCCCC(O)Cn1nc(Nc2ccc(C)cc2)c(C(=O)OCC)c1N (stereo not drawn)', 'class 1'),
  ('CCCCC(O)Cn1nc(Nc2ccccc2C)c(C(=O)OCC)c1N (stereo not drawn)', 'class 1'),
  ('CCCCC(Cn1nc(Nc2ccc(Cl)cc2)c(C(=O)OCC)c1N)OC(=O)Nc1cccc(C(F)(F)F)c1 (stereo not drawn)', 'class 0'),
  ('CCCCC(O)Cn1nc(Nc2cccc(C)c2)c(C(=O)OCC)c1N (stereo not drawn)', 'class 1'),
  ('CCOC(=O)c1c(Nc2ccc(C)cc2)nn(CC(OC(=O)Nc2cccc(C(F)(F)F)c2)c2ccccc2)c1N (stereo not drawn)', 'class 0');

###

Test system: SK-BR-3
assay: Antiproliferative activity against human SK-BR-3 cells assessed as growth rate at 10 uM incubated for 48 hrs by MTT assay relative to control
Format: functional
details: read-out: Activity
Measured growth at 10 µM of individual entries
outcomeMeasure: growth at 10 µM (%)

INSERT INTO assay_data (molecule, outcomemeasure, experimentalresult) VALUES
  ('CCOC(=O)c1c(Nc2ccccc2)nn(CC(OC(=O)Nc2cccc(C(F)(F)F)c2)c2ccccc2)c1N (stereo not drawn)', 'growth at 10 µM', 125),
  ('CCCCC(O)Cn1nc(Nc2cccc(Cl)c2)c(C(=O)OCC)c1N (stereo not drawn)', 'growth at 10 µM', 108),
  ('CCCCC(Cn1nc(Nc2ccc(C)cc2)c(C(=O)OCC)c1N)OC(=O)Nc1cccc(C(F)(F)F)c1 (stereo not drawn)', 'growth at 10 µM', 110),
  ('CCCCC(O)Cn1nc(Nc2ccccc2Cl)c(C(=O)OCC)c1N (stereo not drawn)', 'growth at 10 µM', 103),
  ('CCCCC(O)Cn1nc(Nc2ccc(Cl)cc2)c(C(=O)OCC)c1N (stereo not drawn)', 'growth at 10 µM', 114),
  ('CCOC(=O)c1c(Nc2ccc(Cl)cc2)nn(CC(OC(=O)Nc2cccc(C(F)(F)F)c2)c2ccccc2)c1N (stereo not drawn)', 'growth at 10 µM', 124),
  ('CCOC(=O)c1c(Nc2ccc(Cl)cc2)nn(CC(O)c2ccccc2)c1N (stereo not drawn)', 'growth at 10 µM', 119),
  ('CCCCC(Cn1nc(Nc2ccc(Cl)cc2)c(C(=O)OCC)c1N)OC(=O)Nc1cccc(C(F)(F)F)c1 (stereo not drawn)', 'growth at 10 µM', 118);

Entry source: ChEMBL document CHEMBL5634087
